Target: Cannabinoid receptor 1 (Rattus norvegicus)
Sequence (P20272 whole entry): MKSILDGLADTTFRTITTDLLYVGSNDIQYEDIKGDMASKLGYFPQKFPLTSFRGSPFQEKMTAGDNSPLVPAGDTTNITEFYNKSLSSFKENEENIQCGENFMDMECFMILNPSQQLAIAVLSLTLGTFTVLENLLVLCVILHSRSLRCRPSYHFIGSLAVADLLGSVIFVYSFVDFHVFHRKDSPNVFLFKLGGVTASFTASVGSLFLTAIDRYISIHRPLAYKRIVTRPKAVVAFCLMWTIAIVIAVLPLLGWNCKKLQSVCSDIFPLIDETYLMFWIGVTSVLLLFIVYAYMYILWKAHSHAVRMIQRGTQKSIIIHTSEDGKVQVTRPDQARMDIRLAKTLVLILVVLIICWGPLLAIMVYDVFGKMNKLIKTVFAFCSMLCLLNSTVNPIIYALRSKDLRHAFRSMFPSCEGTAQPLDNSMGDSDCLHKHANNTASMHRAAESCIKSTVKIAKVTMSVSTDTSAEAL
pIC50: −log10 of the molar value.
The label depends only on pIC50: 1 (yes) if it is at least 8, 0 (no) if it is smaller.

{"columns": ["cpd-smiles", "label-class"],
 "data": [
  ["CC(C)(C)c1nnc(-c2nn(-c3ccc(Cl)cc3Cl)c(-c3ccc(Br)cc3)c2C(=O)Nc2ccccc2)o1", "1 (yes)"],
  ["O=C(Nc1ccccc1)c1c(-c2nnc(C3(c4ccc(Cl)cc4)CC3)o2)nn(-c2ccc(Cl)cc2Cl)c1-c1ccc(Br)cc1", "1 (yes)"],
  ["CC(C)(C)c1nnc(-c2nn(-c3ccc(Cl)cc3Cl)c(-c3ccc(Cl)cc3)c2C(=O)Nc2ccccn2)o1", "1 (yes)"],
  ["CC(C)(C)c1nnc(-c2nn(-c3ccc(Cl)cc3Cl)c(-c3ccc(Cl)cc3)c2C(=O)Nc2ccccc2)o1", "1 (yes)"],
  ["CC(C)(C)c1nnc(-c2nn(-c3ccc(Cl)cc3Cl)c(-c3ccc(Cl)cc3)c2C(=O)NN2CCCCC2)o1", "0 (no)"]
]}
